Numbers sourced from patent US20240239894A1.

Exercise: for every item that follows, state its recorded kon.
- Assay Target: T1, HumanB7-H4 (Homo sapiens, UniProt Q7Z7D3)
- T1 construct: Human B7H4 ECD; FLAG; 10His; made in house
- T1 sequence (Q7Z7D3 25-259 limits assumed): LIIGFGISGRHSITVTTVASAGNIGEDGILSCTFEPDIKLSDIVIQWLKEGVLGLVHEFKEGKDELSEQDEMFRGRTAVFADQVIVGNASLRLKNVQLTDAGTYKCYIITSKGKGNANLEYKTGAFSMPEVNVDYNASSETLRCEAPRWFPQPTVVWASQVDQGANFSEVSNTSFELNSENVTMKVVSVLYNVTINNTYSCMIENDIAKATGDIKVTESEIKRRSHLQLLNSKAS
- Test Method Notes: ForteBio Octet affinity
- Type: binding
- Test Context: hIgG1 (n = 1)
Field: numeric (M⁻¹ s⁻¹). Do not append units.

## Task Determine its reported kon: ZY0E05-E07: anti-B7-H4 antibody clone, VH SEQ ID NO: 37, VL SEQ ID NO: 38 (antibody, V domains shown) VH: QVQLQESGPGLVKPSQTLSLTCTVSGGSISSGGYYWSWIRQHPGKGLEWIGNIYYSGSTYYNPSLKSRVTISVDTSKNQFSLKLSSVTAADTAVYYCAREKALASVIPSGYENYYVVDVWGQGTTVTVSS VL: DIQLTQSPSFLSASVGGRVTITCWASQGIAGYLAWYQQKPGKAPKLLIYAASTLQSGVPSRFSGSGSGTEFTLTISSLQPEDFATYYCQHLNSYPLTFGGGTKVEIK
## Result 21700

## Task Tell me kon reported for ZY0EP0-C07: anti-B7-H4 antibody clone, VH SEQ ID NO: 39, VL SEQ ID NO: 40 (antibody, V domains shown) VH: QVQLVESGGVLVKPGGSLRLSCAASGFTLSDYYMSWIRQAPGMGLEWVSYISSSGSTIYYTDSVKGRFTISRDSAKNSLYLQMNSLRAEDTAVYYCARDGVGFDYWGQGTLVTVSS VL: EIVLTQSPGTLSLFPGERATLSCRASQSVSSSYLAWYQQKPGQSPRLLIYAASSRATGIPDRFSGSGSGTDFTLTISRLEPEDFAVYYCQQYGSSPLYTFGQGTKLEIK
## Result 48800

## Task Output kon of ZY0EQD-E02: anti-B7-H4 antibody clone, VH SEQ ID NO: 33, VL SEQ ID NO: 34 (antibody, V domains shown) VH: QVQLQQWGAGLLKPSETLSLTCAVYGGSFSGYYWNWIRQPPGKGLEWIGEINHSGSTSYNPSLKSRVTISVDTSKNQFSLKLSSVTAADTAVYYCARVLYNWNVDSWGQGTLVTVSS VL: DIQMTQSPSSLSASVGDRVTITCRASQDIRNDVGWYQQKPGKAPKRLIYAASRLQSGVPSRFSGSGSGTEFTLTISSLQPEDFATYYCLQHNSYPRTFGQGTKVEIK
## Result 216000
